- targetOfAssay: Cytochrome P450 1A2 (Homo sapiens) (UniProt P05177)
- Sequence (P05177 whole entry, looked up): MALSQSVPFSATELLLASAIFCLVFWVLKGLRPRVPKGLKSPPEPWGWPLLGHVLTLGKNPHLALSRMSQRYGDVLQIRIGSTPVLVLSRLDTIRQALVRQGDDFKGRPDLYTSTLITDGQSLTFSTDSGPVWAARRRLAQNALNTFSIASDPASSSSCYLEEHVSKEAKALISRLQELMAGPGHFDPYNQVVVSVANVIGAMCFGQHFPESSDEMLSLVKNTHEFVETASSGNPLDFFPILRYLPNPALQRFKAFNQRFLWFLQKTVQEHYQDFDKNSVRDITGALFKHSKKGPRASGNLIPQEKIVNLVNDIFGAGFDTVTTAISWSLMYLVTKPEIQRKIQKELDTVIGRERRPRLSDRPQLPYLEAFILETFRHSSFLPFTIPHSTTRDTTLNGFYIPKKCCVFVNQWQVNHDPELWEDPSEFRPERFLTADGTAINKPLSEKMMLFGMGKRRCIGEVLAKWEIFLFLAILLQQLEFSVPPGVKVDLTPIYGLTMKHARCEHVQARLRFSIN
- runDescription: Cytochrome panel assay with activity outcomes
- runParameters: recombinant CYP, pro-luciferin dealkylation, luminescence, p450-cyp1a2; series mostly up to 57.1 µM
- Description: The P450 gene superfamily is involved in the metabolism and clearance of xenobiotics. This assay used various human CYP P450 isozymes to measure the dealkylation of various pro-luciferin substrates to luciferin. The luciferin is then measured by luminescence after the addition of a luciferase detection reagent. […] Inhibitors and some substrates limit the production of luciferin, and decrease measured luminescence. […] 8, Detection, 1 sec, ViewLux luminescent read […]
Among all 16,000 compounds or so, about 5,700 (36%) were called active. Roughly 24% stayed inconclusive and do not appear here. The list shows a part of the results.
recordedMetric: AC50

Recorded AC50, per entry:
CCCCNC(=O)C1CC(=O)N(c2ccc(OC)cc2)C1c1ccc(OC)cc1 (centres undefined)    inactive
COc1ccccc1CNc1ncncc1-c1cccc(C#N)c1    10 µM (active)
COc1cc(/C=C(\C#N)C(N)=O)cc(CSc2nc3ccccc3s2)c1O    1.26 µM (active)
CCOC(=O)COc1c(OC)cc(Cl)cc1C1Nc2ccccc2C(=O)N1c1ccc(F)cc1 (centres undefined)    inactive
N#C/C(=C\c1ccc(O)c(O)c1)C(=O)Nc1ccccc1    0.501 µM (active)

AC50 reading for C=C(C)C1CC=C(C)/C(=N/NC(=O)c2ccc(NC(=O)c3cccc(C)c3)cc2)C1 (centres undefined) : inactive

---

- targetOfAssay: Cytochrome P450 1A2 (Homo sapiens) (UniProt P05177)
- runDescription: Cytochrome panel assay with activity outcomes
- runParameters: recombinant CYP, pro-luciferin dealkylation, luminescence, p450-cyp1a2; series mostly up to 57.1 µM
The whole screen tested about 16,000 compounds, of which about 5,700 (36%) were called active. Not shown: some 24% with an inconclusive outcome. The call rests on the fitted dose curve; in most records, active means well fitted curve in the direction sought with a large enough effect; inconclusive means small, poorly fitted or top-dose-only effect, or effect the other way; inactive means no such curve, though single readings can be large or run the other way. Some of the results follow.
// one of active, inactive, no free text

Here's what some known entries look like.
Oc1c(CN2CCOCC2)cc(-c2ccccc2)cc1CN1CCOCC1    inactive
CO[C@]1(NC(=O)CSCC#N)C(=O)N2C(C(=O)O)=C(CSc3nnnn3C)CS[C@H]21    inactive
COC(=O)[C@@]1(Cc2ccc(F)cc2)[C@@H]2[C@@H](CC(=O)[C@H]2CC(=O)C(=O)N(C)C)CN1C(=O)c1ccccc1    inactive
COc1cccc2c1OC1(C)CC2/C(=C(\C)O)C(=O)N1 (stereo not given)    inactive

Turning now to a further record.
I'd appreciate the recorded outcome for "COc1ccc(CNc2ccnc(-c3ccc4c(c3)OCO4)n2)c(OC)c1" from this test.
active

---

- targetOfAssay: Cytochrome P450 1A2 (Homo sapiens)
- runDescription: Cytochrome panel assay with activity outcomes
- runParameters: recombinant CYP, pro-luciferin dealkylation, luminescence, p450-cyp1a2; series mostly up to 57.1 µM
- Method: The P450 gene superfamily is involved in the metabolism and clearance of xenobiotics. This assay used various human CYP P450 isozymes to measure the dealkylation of various pro-luciferin substrates to luciferin. The luciferin is then measured by luminescence after the addition of a luciferase detection reagent. […] Inhibitors and some substrates limit the production of luciferin, and decrease measured luminescence. […] 8, Detection, 1 sec, ViewLux luminescent read […]
Out of some 16,000 compounds screened, about 5,700 (36%) were called active. About 24% were inconclusive and are not listed. Calls come from the whole dose curve; as a rule, active = well fitted curve in the direction sought with a large enough effect; inconclusive = small, poorly fitted or top-dose-only effect, or effect the other way; inactive = no such curve, though single readings can be large or run the other way. The list shows a part of the results.
Outcome field: choose from true (1) for active, false (0) for inactive

C/C(CC(=O)NC1CCCC1)=N\NC(=O)Cc1cccs1    false (0)

Name the outcome recorded for "CCN=C(Nc1ccc(Cl)cc1)c1cccnc1" in the assay.
false (0)

Please state the recorded outcome for this molecule: "C=CCSc1nc2ccccc2n1C(=O)/C=C/c1cc(OC)c(OC)c(OC)c1"
true (1)

Write down the call the test reported for this molecule. Item: "COc1ccccc1-c1nccc(NCc2ccccc2)n1"
true (1)

Field: outcome | Entry: "NC(=O)c1ccc([N+](=O)[O-])cc1SCc1ccccc1"
true (1)

Could you check what this test reported for "FC(F)(F)c1nc2ccccc2nc1N/N=C\c1ccccc1" ?
true (1)

Tell me the recorded outcome of this test for "CCCCSc1ccc2nc(-c3ccc(C#N)cc3)cn2c1" .
true (1)

Status in this test for "Cc1cc(C)c2c(-n3cccc3)nn(CC#N)c2n1" ?
true (1)

---

- targetOfAssay: Cytochrome P450 1A2 (Homo sapiens)
- runDescription: Cytochrome panel assay with activity outcomes; on activity, negative = inhibition: on the % scale 0 is the no-effect control and ±100 the full control effect
- runParameters: recombinant CYP, pro-luciferin dealkylation, luminescence, p450-cyp1a2; series mostly up to 57.1 µM
Among all 16,000 compounds or so, about 5,700 (36%) were called active. Another 24% or so got no clear call; they are omitted. Some of the results follow.
recordedMetric: activity, negative = inhibition

Examples from the recorded data:
Cn1c(=O)c2c(nc(Cc3ccccc3)n2CC(=O)O)n(C)c1=O    -13.2% [at 2.29 µM] (inactive)
O=C(O)[C@@H](S)[C@H](S)C(=O)O    -20.1% [at 11.4 µM] (inactive)
O=S(=O)(O)c1ccc2cc(N=Nc3cc(S(=O)(=O)O)c4cccnc4c3O)ccc2c1    -18.8% [at 2.29 µM] (inactive)
CC(C)(C)N1C(=O)[C@H]2[C@@H]3[C@H](O)C=CC(=O)[C@H]3CC[C@H]2C1=O    -5.4% [at 11.4 µM] (inactive)
CCOC(=S)SCC(=O)O    -12.2% [at 11.4 µM] (inactive)

Memo: "C#CCCCO/N=C1/[C@H]2O[C@@H]2[C@@H](O)[C@H]2[C@H]1CCn1c(=O)n(Cc3cc4c(cc3Cl)OCO4)c(=O)n12" , reported activity, negative = inhibition: 1.39% [at 11.4 µM] (inactive)

The value of activity, negative = inhibition measured for the compound "COC(=O)C/C=C\[C@@H](C)[C@@H](/C=N\OC[C@@H]1O[C@H](c2ccccc2)C=C[C@@H]1Oc1ccc(OC)cc1)NS(=O)(=O)c1ccc(C)cc1" turned out to be -1.03% [at 11.4 µM] (inactive)

Short answer for COCCCN1C(=O)C(=O)/C(=C(/O)c2ccc(OC(C)C)c(C)c2)C1c1ccncc1 (centres undefined) : activity, negative = inhibition was 15.5% [at 11.4 µM] (inactive)

// sample "CC[C@H]1CC[C@H]2[C@@H]3CC=C4C[C@H](OC(C)=O)[C@@H](N)C[C@@]4(C)[C@H]3CC[C@@]12C" , its activity, negative = inhibition was -5.9% [at 11.4 µM] (inactive)

Quick note, activity, negative = inhibition for "CC(C)=CCc1c2c(c3occ(-c4ccc(O)c(O)c4)c(=O)c3c1O)C=CC(C)(C)O2" landed at -3.01% [at 2.29 µM] (inactive)

Notebook: "N[C@@H]1[C@@H]2[C@@H]3C[C@H]4N(CC[C@@]14C(=O)C(=O)O)CC3=CCO[C@@H]2CC(=O)O" , activity, negative = inhibition read as -16.1% [at 11.4 µM] (inactive)

Sample "O=C(O)c1cc(C(=O)O)nc(C(=O)O)c1" ; activity, negative = inhibition observed: -9.81% [at 11.4 µM] (inactive)

Note to self: activity, negative = inhibition recorded for "Nc1c(S(N)(=O)=O)cc(S(N)(=O)=O)cc1S(N)(=O)=O" was -11.6% [at 11.4 µM] (inactive)

So, "CN(C)CCn1c(CO)nc2c1c(=O)n(C)c(=O)n2C" ? Its activity, negative = inhibition was -6.02% [at 11.4 µM] (inactive)

---

- targetOfAssay: Cytochrome P450 1A2 (Homo sapiens) (UniProt P05177)
- runDescription: Cytochrome panel assay with activity outcomes
- runParameters: recombinant CYP, pro-luciferin dealkylation, luminescence, p450-cyp1a2; series mostly up to 57.1 µM
The campaign covered roughly 16,000 compounds. About 5,700 (36%) were called active. Roughly 24% stayed inconclusive and do not appear here. The list shows a part of the results.
recordedMetric: AC50

Check out these entries, answers already filled in.
CC(=O)NC1=NC(=O)C(C)S1 (centres undefined)    inactive
Cn1c(=O)n(C)c2cc([N+](=O)[O-])c(N3CCN(C(=O)c4ccccc4Cl)CC3)cc21    inactive
Cc1ccc(C2C3=C(CCCC3=O)Nc3nc(SCC(=O)NCc4ccco4)[nH]c(=O)c32)cc1 (centres undefined)    inactive
NCC[C@H](O)C(=O)N[C@H]1C[C@@H](N)[C@@H](O[C@H]2O[C@@H](CN)[C@@H](O)[C@@H](O)[C@@H]2O)[C@@H](O)[C@@H]1O[C@H]1O[C@@H](CO)[C@@H](O)[C@@H](N)[C@@H]1O    inactive
O=[N+]([O-])c1ccc(N2CCCCC2)c(Cl)c1N1CCCCC1    2000 nM (active)

The value of AC50 recorded for "O=[N+]([O-])c1cc(F)c(N2CCOCC2)cc1N1CCCCC1" when tested on Cytochrome P450 1A2 (Homo sapiens) (UniProt P05177) reads 1260 nM (active)

Entry "COc1cccc(Cn2c(=O)c(CCc3ccccc3)nc3cnc(N(C)C)nc32)c1" : AC50 on Cytochrome P450 1A2 (Homo sapiens) (UniProt P05177) = 15800 nM (active)

Summary: "O=C(NCc1ccccc1)c1sc(=S)n2c1[nH]c(=O)c1ccccc12" , Cytochrome P450 1A2 (Homo sapiens) (UniProt P05177), AC50 = 8910 nM (active)

Reported AC50 (Cytochrome P450 1A2 (Homo sapiens) (UniProt P05177)) for entry "COC(=O)c1ccc2ccn(CC(=O)NC3CCCCC3)c2c1" is inactive

Fill in: Cytochrome P450 1A2 (Homo sapiens) (UniProt P05177) AC50 for COC(=O)C1=C(C)OC(N)=C(C#N)C1c1cc(OC)ccc1OC (centres undefined) = 15800 nM (active)

Sample "O=C(O)C1CCN(c2c([N+](=O)[O-])cc(C(F)(F)F)cc2[N+](=O)[O-])CC1" , system: Cytochrome P450 1A2 (Homo sapiens) (UniProt P05177). Its AC50 is inactive

Here "O=C(NC1CCCCC1)c1sc(=S)n2c1[nH]c(=O)c1ccccc12" was tested on Cytochrome P450 1A2 (Homo sapiens) (UniProt P05177), and its AC50 came to 3160 nM (active)

Entry "Cc1nc2cnc(N(C)C)nc2n(CCc2ccccc2)c1=O" : AC50 on Cytochrome P450 1A2 (Homo sapiens) (UniProt P05177) = 1260 nM (active)

Entry "c1cncc(-c2ccc3ncnc(NCCN4CCOCC4)c3c2)c1" , Cytochrome P450 1A2 (Homo sapiens) (UniProt P05177) data, AC50 value: 1000 nM (active)
